# experimental.protocol: gradient 5% acetonitrile 3 min, to 50% in 2 min, to 85% in 15 min, held 3 min, 100 µL/min
# protocol.conditions: column: Zorbax Extend-C18 2.1 x 50 mm; eluents: water / acetonitrile, 0.1% formic acid
The entries below come with measured RP-LC retention time values attached.
result.type: RP-LC retention time

1) Cc1cc(C)cc(NC(=O)c2cccn2Cc2noc(C3CC3)n2)c1 :: 994 s
2) COc1ccc(OC)c(CC2C(=O)Nc3c(C)cccc32)c1 (stereo not given) :: 882 s
3) CCc1nc2c(c(=O)n1CC(=O)NCc1cccs1)CN(Cc1ccccc1)CC2 :: 624 s
4) CCc1noc(NC(C)=O)c1-c1ccc(OC)c(S(=O)(=O)Nc2cccc(C(F)(F)F)c2)c1 :: 862 s
5) O=C(Nc1ccc(C2=NCCCN2)cc1)Nc1ccc(C2=NCCCN2)cc1 :: 581 s
